Where do the numbers come from? From PubChem BioAssay (NCI).

As shown below, each of these molecules has a reported growth value.
System: ACHN renal
Test: NCI-60 one-dose screen, 48 h (100 = growth as untreated, 0 = no growth, -100 = all killed)
Conditions: 10 µM unless noted
Compounds without any hit were thinned out: in the full panel of roughly 83,000, 20% have a hit.

| Smiles entry | Measurement unit | growth |
| --- | --- | --- |
| C/C(=N\Nc1ccccc1)c1ccc(NC2=CC(=O)c3ccccc3C2=O)cc1 | % | 48.2 |
| COC(=O)c1c2c(c(C)[n+]([O-])c1C)C(=O)C(NCc1ccccc1)=CC2=O | % | 35.4 |
| c1ccc(-c2nc3ccccc3[nH]2)c(OCCCCCOc2ccccc2-c2nc3ccccc3[nH]2)c1 | % | 89.4 |
| C/C(=C(\c1ccc(OCCN2CCCCCC2)cc1)c1ccc(OC(=O)c2ccccc2)cc1)c1ccc(Cl)cc1 | % | 77.1 |
| CCSc1ccnc(N)n1 | % | 96.8 |
| CCCN(CCSSCCNc1nc(N(C)O)nc(N(C)O)n1)c1nc(N(C)O)nc(N(C)O)n1 | % | 45.3 |
| COc1ccc2c(c1)oc1c(C)c3c(c(C)c12)C(=O)N(CCOS(C)(=O)=O)C3=O | % | 97.1 |
| Cn1cc(-c2csc(-c3cn(C)c4ccccc34)n2)c2cnccc21 | % | -61.4 |
| NCCCNc1nc2ccccc2c2c(=O)c3cc(Cl)ccc3sc12 | % | -37.2 |
| O=c1cc(C(F)(F)F)c2cc(-c3cc4ccccc4c(=O)o3)c(O)cc2o1 | % | 74.1 |

====

Tested on: UACC-62 melanoma
Experiment: NCI-60 one-dose screen, 48 h (100 = growth as untreated, 0 = no growth, -100 = all killed)
Conditions: 10 µM unless noted
About 83,000 compounds went through this panel and 20% of them were active in at least one assay; those are over-represented in the sample as a whole.
Cut-off 20% on growth, inclusive. At or above means label 1; below means label 0.

| Compound | Cat |
| --- | --- |
| Nc1cc(Br)cc2c1[nH]c(=O)c1ccccc12 | label 1 |
| Fc1ccc2[nH]cc(-c3nc(-c4c[nH]c5c(Cl)nccc45)cs3)c2c1 | label 1 |
| COc1cc(C[C@H]2COc3cc(O)cc(O)c3C2=O)ccc1O | label 1 |
| CCn1cc(C(=O)N/N=C/c2cccc(F)c2)c(=O)c2cc(F)c(N3CCNC(C)C3)c(F)c21 (centres undefined) | label 1 |
| O=C(NNc1nc2cc(F)ccc2n2c(CN3CCOCC3)ccc12)c1ccccc1 | label 0 |
| O=C(/C=C/C12c3ccccc3C(c3ccccc31)C1C(=O)NC(=O)C12)c1ccco1 (centres undefined) | label 1 |
| CN(C)CCCn1c2c(c3ccncc3c1=O)C(=O)c1ccccc1-2 | label 0 |
| N#Cc1c(-c2cccc(Cl)c2)cc(-c2cccnc2)[nH]c1=O | label 1 |
| CCOC(=O)c1[nH]cc2c1CCc1sc(Nc3ccccn3)nc1-2 | label 1 |

====

Tested on: UACC-62 melanoma
Assay: NCI-60 one-dose screen, 48 h (100 = growth as untreated, 0 = no growth, -100 = all killed)
Conditions: 10 µM unless noted
The panel holds about 83,000 compounds, 20% with a hit somewhere; the sample as a whole holds those more often.
Reported metric: growth (%)

| Compound | Reported metric | Endpoint result |
| --- | --- | --- |
| Cc1ccc(Cc2cnc(NC(=O)/C=C/c3ccc(C)o3)s2)cc1 | growth | 31.9 |
| COc1ccc(/C=C(/C(=O)N2CCNCC2)c2cc(OC)c(OC)c(OC)c2)cc1O | growth | 32.5 |
| CC1(C)CC[C@]23CC[C@]4(C)[C@H](CC[C@@H]5[C@@]6(C)C/C(=C/O)C(=O)C(C)(C)[C@@H]6CC[C@]54C)[C@H]2[C@H]1OC3 | growth | 93 |
| N#Cc1c(-c2ccc(Cl)cc2)nc(NN=Cc2ccc[nH]2)nc1N1CCOCC1 | growth | 88 |
| COCCn1cc(-c2nc(-c3cn(CCOC)c4ncccc34)cs2)c2cc(F)ccc21 | growth | 61.8 |
| Cc1cccc(N2C(=O)/C(=C/C(Cl)=C/c3ccc([N+](=O)[O-])cc3)SC2=S)c1C | growth | 0.485 |
| CC(O)CNC(Cc1ccccc1)c1ccc2c(c1)OCO2 (stereo not given) | growth | 91.4 |
| CCOC(=O)NC(=S)n1oc(=O)c2ccccc21 | growth | 93.3 |
| O=S(=O)(Nc1cc(Sc2nc3ccccc3s2)c(O)c2ccccc12)c1ccc2ccccc2c1 | growth | 99.1 |
| Nc1c(Cl)cc(/C=C2\C=Cc3ccccc32)cc1Cl | growth | 106 |

====

Tested on: ACHN renal
Assay: NCI-60 one-dose screen, 48 h (100 = growth as untreated, 0 = no growth, -100 = all killed)
Details: 10 µM unless noted
This is part of a sample that, as a whole, favours compounds with a hit. Of some 83,000 tested, about 20% had one in any assay.
# growth per entry

| Compound | Measurement unit | growth |
| --- | --- | --- |
| COC1C(O)CC(OC2CC(OC3CC(O[C@@H]4C(=O)c5c(cc6cc(OC7CC(OC8CC(O)C(O)C(C)O8)C(O)C(C)O7)c(C)c(O)c6c5O)CC4[C@H](OC)[C@@H](O)C(C)=O)OC(C)C3O)OC(C)C2O)OC1C (some centres not stated) | % | 0.949 |
| COc1ccc2c(c1)C(C)Cc1c(ncnc1-n1cnc3cc(C)ccc31)N2C (configuration not stated) | % | 29 |
| O=c1oc2c(cc1-c1ccccc1)c(=O)[nH]c1ccccc12 | % | 102 |
| CCOC(=O)CNC1=C(Cl)C(=O)N(Cc2ccc(Cl)cc2)C1=O | % | 101 |
| c1ccc(Nc2nc3c(s2)CCc2c[nH]cc2-3)nc1 | % | 92.3 |
| Cc1cc(=O)n(C(=S)Nc2ccc(Cl)cc2)c2cc(O)ccc12 | % | 100 |
| Cc1cc(C)c2c(c1)N(C)c1ncnc(-n3c(C)nc4cc(C)ccc43)c1CC2C (configuration not stated) | % | 39.4 |
| c1cc(OCCN2CCCCC2)ccc1CNc1ccc2nc(CCC3CCCCC3)[nH]c2c1 | % | 45.4 |
| O=C(O)c1cn(C2CC2)c2cc(N3CCN(C(=O)N4CCOCC4)CC3)c(F)cc2c1=O | % | 100 |
| COc1ccc2[nH]cc(-c3nonc3-c3c[nH]c4ccc(Br)cc34)c2c1 | % | 38.7 |
| CCOC(=O)NCCCC(=O)NCCc1ccccc1 | % | 111 |
| COCCn1cc(-c2nc(-c3c[nH]c4ncccc34)cs2)c2ccccc21 | % | 67.6 |

====

Quick list: growth per entry.
System: A498 renal
Test: NCI-60 one-dose screen, 48 h (100 = growth as untreated, 0 = no growth, -100 = all killed)
Settings: 10 µM unless noted
The panel holds about 83,000 compounds, 20% with a hit somewhere; the sample as a whole holds those more often.
Reported metric: growth (%)

| Molecule | Endpoint result |
| --- | --- |
| CCN(CC)CCOc1ccc2ccc(=O)oc2c1 | 98.5 |
| CCCCCCCCCCOC(=O)c1nn(C(C)=O)c2cc(C)c(C)cc12 | 79.1 |
| CS(=O)(=O)Nc1cc(-c2ccc3ncnc(Nc4ccc5c(cnn5Cc5ccncc5)c4)c3c2)cnc1Cl | 2.83 |
| CCOC(=O)C1=C(CC(O)c2ccc(OC)cc2OC)NC(=O)NC1c1ccccc1 (centres undefined) | 122 |

====

Test system: NCI/ADR-RES ovarian
Experiment: NCI-60 one-dose screen, 48 h
Details: 10 µM unless noted
The panel holds about 83,000 compounds, 20% with a hit somewhere; the sample as a whole holds those more often. Active and inactive are the calls of the source. Rule for the calls: active = growth percent below 10; inactive = the rest.
Outcome codes: active, inactive

| Smiles entry | Cat |
| --- | --- |
| O=C(CSc1nnnn1-c1ccccc1)Nc1ccc(Oc2ccccc2)cc1 | inactive |
| CSc1ccc2c3c(n(CCCn4ccnc4)c(=O)c2c1)-c1ccccc1C3=O | inactive |
| Cc1c(C(C)(C)O)cn2ncnc(Oc3ccc(NC(=O)Nc4ccc(Cl)c(C(F)(F)F)c4)c(F)c3)c12 | inactive |
| Oc1c(CN2CCC(N3CCOCC3)CC2)cc(Cc2cc(CN3CCC(N4CCOCC4)CC3)c(O)c3ncccc23)c2cccnc12 | inactive |
| CN1c2ccccc2S(=O)(=O)n2c(SCC(=O)Nc3nc4ccc(F)cc4s3)nnc21 | inactive |
| CCN(CC)CCN1C(=O)c2c(c3c4ccccc4[nH]c3c3ccc4ccccc4c23)C1=O | active |
| CC(C)(C)OC(=O)CN1CCc2c(sc3ncnc(N4CCN(c5ccc(F)cc5)CC4)c23)C1 | inactive |
| CC1(C)N=C(N)N=C(N)N1c1ccc(S(=O)(=O)Nc2nccs2)cc1 | inactive |
| CC/C(=C(\c1ccc(Cl)cc1)c1ccc(OCCN2CCCCC2)cc1)c1ccc(O)cc1 | inactive |
| c1ccc(Nc2nc3c(s2)CCc2c[nH]cc2-3)nc1 | inactive |
| C=C1C(=O)O[C@H]2[C@H]1CC/C(COC(=O)NCc1ccc(Cn3c(=O)sn(-c4ccccc4)c3=O)cc1)=C\CC[C@@]1(C)O[C@@H]21 | inactive |
| O=C(/C=C/c1ccco1)Nc1ncc(Cc2cc(Cl)ccc2Cl)s1 | active |
